# Study target: NavMs E227D mutant channel (Magnetococcus marinus, UniProt A0L5S6, E227D)
# Protocol summary: cell-based
pIC50: −log10 of the molar value.
Assay endpoint: pIC50

>>> test_value("CC/C(=C(\\c1ccc(O)cc1)c1ccc(OCCN(C)C)cc1)c1ccccc1 [4OH-Tam, 4-hydroxytamoxifen]")
5.55

* * *

Form field: Average slope of the Hill fit, NavMs, HEK cells (one value per entry).
# Study target: NavMs (Magnetococcus marinus, UniProt A0L5S6)
# Protocol summary: cell-based
# Particulars: value in parentheses, error SD
Assay endpoint: Average slope of the Hill fit, NavMs, HEK cells

>>> test_value("CC/C(=C(\\c1ccc(O)cc1)c1ccc(OCCNC)cc1)c1ccccc1 [Endoxifen]")
1.09
>>> test_value("CC/C(=C(/c1ccc(O)cc1)c1ccc(OCCN(C)C)cc1)c1ccccc1.Cl [E-4OH-Tam, E-4-Hydroxytamoxifen hydrochloride]")
1.15
>>> test_value("CC/C(=C(\\c1ccc(O)cc1)c1ccc(OCCN(C)C)cc1)c1ccccc1.Cl [Z-4OH-Tam, Z-4-Hydroxytamoxifen hydrochloride]")
1.05
>>> test_value("CC/C(=C(\\c1ccc(O)cc1)c1ccc(OCCN(C)C)cc1)c1ccccc1 [4OH-Tam, 4-hydroxytamoxifen]")
1.14

* * *

# Study target: hNav1.2 (Homo sapiens)
# Protocol summary: Whole-cell patch-clamp INa inhibition, hNav1.2 in HEK293 cells
# Format: cell-based
# Particulars: value in parentheses, error SD
Form field: Average slope of the Hill fit, NaV1.2, HEK cells (one value per entry).
Assay endpoint: Average slope of the Hill fit, NaV1.2, HEK cells

>>> test_value("CC/C(=C(\\c1ccc(O)cc1)c1ccc(OCCNC)cc1)c1ccccc1 [Endoxifen]")
0.97
>>> test_value("CC/C(=C(\\c1ccc(O)cc1)c1ccc(OCCN(C)C)cc1)c1ccccc1 [4OH-Tam, 4-hydroxytamoxifen]")
0.96
>>> test_value("CC/C(=C(/c1ccc(O)cc1)c1ccc(OCCN(C)C)cc1)c1ccccc1.Cl [E-4OH-Tam, E-4-Hydroxytamoxifen hydrochloride]")
0.94
>>> test_value("CC/C(=C(\\c1ccc(O)cc1)c1ccc(OCCN(C)C)cc1)c1ccccc1.Cl [Z-4OH-Tam, Z-4-Hydroxytamoxifen hydrochloride]")
0.95

* * *

# Study target: hNav1.2 (Homo sapiens, UniProt Q99250)
# Sequence (Q99250 whole entry): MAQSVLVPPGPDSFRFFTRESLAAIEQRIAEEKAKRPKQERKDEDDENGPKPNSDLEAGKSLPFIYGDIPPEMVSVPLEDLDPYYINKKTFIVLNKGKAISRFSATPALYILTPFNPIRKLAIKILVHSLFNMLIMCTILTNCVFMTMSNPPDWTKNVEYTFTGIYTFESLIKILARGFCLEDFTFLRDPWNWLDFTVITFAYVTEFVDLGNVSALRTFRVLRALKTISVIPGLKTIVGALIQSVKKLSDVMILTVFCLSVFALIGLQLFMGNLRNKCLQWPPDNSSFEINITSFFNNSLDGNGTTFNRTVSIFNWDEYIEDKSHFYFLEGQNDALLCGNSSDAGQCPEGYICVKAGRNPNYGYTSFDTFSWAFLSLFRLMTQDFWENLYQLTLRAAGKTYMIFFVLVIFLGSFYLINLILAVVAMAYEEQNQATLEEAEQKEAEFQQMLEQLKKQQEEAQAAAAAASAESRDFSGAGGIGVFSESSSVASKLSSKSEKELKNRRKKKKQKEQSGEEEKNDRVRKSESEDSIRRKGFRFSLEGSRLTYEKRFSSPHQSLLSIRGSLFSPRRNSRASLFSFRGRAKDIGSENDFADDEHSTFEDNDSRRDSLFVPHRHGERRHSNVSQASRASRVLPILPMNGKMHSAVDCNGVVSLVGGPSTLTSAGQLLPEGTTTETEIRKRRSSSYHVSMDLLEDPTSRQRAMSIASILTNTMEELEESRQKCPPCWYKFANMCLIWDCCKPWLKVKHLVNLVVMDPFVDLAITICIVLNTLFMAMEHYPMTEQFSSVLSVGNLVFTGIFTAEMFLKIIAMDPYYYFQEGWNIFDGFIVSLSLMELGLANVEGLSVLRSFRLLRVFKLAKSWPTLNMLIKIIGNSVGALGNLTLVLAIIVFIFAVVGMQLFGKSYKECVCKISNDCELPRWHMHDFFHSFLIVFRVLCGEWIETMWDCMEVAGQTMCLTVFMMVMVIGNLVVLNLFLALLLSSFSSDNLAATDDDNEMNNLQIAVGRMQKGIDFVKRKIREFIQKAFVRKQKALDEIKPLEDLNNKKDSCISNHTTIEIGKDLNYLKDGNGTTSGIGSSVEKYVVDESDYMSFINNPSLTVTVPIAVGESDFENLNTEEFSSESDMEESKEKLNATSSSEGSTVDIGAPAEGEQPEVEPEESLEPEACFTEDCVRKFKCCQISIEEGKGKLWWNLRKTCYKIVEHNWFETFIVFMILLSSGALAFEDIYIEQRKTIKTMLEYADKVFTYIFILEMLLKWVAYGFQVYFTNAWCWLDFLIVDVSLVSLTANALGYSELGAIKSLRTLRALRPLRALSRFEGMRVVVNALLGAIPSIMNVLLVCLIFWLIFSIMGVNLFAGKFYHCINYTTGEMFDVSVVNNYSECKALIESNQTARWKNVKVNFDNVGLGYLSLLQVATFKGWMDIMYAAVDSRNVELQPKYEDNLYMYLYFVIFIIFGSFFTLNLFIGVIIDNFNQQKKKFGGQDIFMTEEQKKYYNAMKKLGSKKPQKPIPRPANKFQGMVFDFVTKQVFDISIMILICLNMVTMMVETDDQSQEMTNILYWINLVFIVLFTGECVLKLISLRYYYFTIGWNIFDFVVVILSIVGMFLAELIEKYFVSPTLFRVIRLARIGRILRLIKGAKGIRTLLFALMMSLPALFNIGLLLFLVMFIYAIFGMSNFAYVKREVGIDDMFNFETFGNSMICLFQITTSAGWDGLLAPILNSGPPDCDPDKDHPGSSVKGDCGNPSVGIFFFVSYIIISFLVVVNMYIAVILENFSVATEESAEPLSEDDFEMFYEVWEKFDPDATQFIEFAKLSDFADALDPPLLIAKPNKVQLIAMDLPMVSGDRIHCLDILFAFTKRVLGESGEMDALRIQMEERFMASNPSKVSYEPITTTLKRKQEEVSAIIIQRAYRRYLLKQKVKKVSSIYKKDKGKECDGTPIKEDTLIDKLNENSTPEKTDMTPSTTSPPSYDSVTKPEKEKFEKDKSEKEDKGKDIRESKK
# Protocol summary: Whole-cell patch-clamp INa inhibition, hNav1.2 in HEK293 cells
# Assay type: cell-based
# Particulars: read-out: Potency of sodium current inhibition (IC50), NaV1.2, HEK cells
pIC50: −log10 of the molar value.
Assay endpoint: pIC50

>>> test_value("CC/C(=C(\\c1ccccc1)c1ccc(OCCNC)cc1)c1ccccc1")
5.49

* * *

# Study target: hNav1.2 (Homo sapiens, UniProt Q99250)
# Protocol summary: Whole-cell patch-clamp INa inhibition, hNav1.2 in HEK293 cells
# Format: cell-based
pIC50: −log10 of the molar value.
Assay endpoint: pIC50

>>> test_value("CC/C(=C(\\c1ccccc1)c1ccc(OCCN(C)C)cc1)c1ccccc1 [Tamoxifen]")
5.62
>>> test_value("CC/C(=C(\\c1ccc(O)cc1)c1ccc(OCCN(C)C)cc1)c1ccccc1 [4OH-Tam, 4-hydroxytamoxifen]")
5.68
>>> test_value("CC/C(=C(\\c1ccc(O)cc1)c1ccc(OCCNC)cc1)c1ccccc1 [Endoxifen]")
5.51

* * *

# Study target: NavMs (Magnetococcus marinus, UniProt A0L5S6)
# Protocol summary: cell-based
pIC50: −log10 of the molar value.
Form field: pIC50 (one value per entry).
Assay endpoint: pIC50

>>> test_value("CC/C(=C(\\c1ccc(O)cc1)c1ccc(OCCNC)cc1)c1ccccc1 [Endoxifen]")
6.48
>>> test_value("CC/C(=C(\\c1ccc(O)cc1)c1ccc(OCCN(C)C)cc1)c1ccccc1 [4OH-Tam, 4-hydroxytamoxifen]")
6.53
